Provenance of the data: patent US20230295259A1

# Assay target: T1, human ferroportin (SLC40A1) fused in frame with GFP, stably expressed in HEK293 cells (human, UniProt Q9NP59 1-571)
# T1 sequence (looked up): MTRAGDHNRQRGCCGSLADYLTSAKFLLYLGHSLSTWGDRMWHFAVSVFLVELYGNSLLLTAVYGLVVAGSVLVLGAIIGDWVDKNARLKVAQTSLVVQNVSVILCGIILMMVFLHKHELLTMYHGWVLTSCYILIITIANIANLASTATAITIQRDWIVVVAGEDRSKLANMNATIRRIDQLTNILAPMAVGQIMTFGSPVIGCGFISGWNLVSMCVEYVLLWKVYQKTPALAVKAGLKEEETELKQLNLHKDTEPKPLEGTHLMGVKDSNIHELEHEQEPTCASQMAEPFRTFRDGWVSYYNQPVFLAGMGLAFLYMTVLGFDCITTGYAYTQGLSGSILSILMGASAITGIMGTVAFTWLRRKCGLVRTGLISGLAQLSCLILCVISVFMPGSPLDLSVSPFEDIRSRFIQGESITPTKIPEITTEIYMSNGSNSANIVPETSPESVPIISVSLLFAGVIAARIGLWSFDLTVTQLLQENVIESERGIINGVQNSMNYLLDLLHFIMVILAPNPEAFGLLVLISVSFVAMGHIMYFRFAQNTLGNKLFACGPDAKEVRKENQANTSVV
# Method notes: cell-based or functional assay
Positions of bridges follow the written chain, without caps; N, C: chain ends. Non-standard residues stand in square brackets, D forms with d. Groups on a side chain read outwards from the residue. *: point of attachment. PEG12 = NCCOCCOCCOCCOCCOCCOCCOCCOCCOCCOCCOCCOCCC(=O)O; Dip = N[C@H](C(=O)O)C(c1ccccc1)c1ccccc1; Palmitoyl = CCCCCCCCCCCCCCCC(=O)*; β3hF = N[C@H](CC(=O)O)Cc1ccccc1; Isovaleryl = CC(C)CC(=O)*
A collection of binders and their measured FPN EC50
Measured quantity: FPN EC50 (nM)

>>> observed("XETHXPCIXXXC (Isovaleric Acid-E-T-H-[Dpa]-P-C-I-[Lys(1PEG2_1PEG2_Ahx_Palm)]-[bhPhe]-[(D)Lys(PEG20K-C-NH2)) [Compound 314]")
357
>>> observed("Isovaleryl-ETH[Dip]PCIK([PEG12-Palmitoyl])[β3hF]K(PEG40KB)RC-NH2 (disulfide 6-12 (inferred)) [Compound 295]")
1780
>>> observed("XETHXPCIXXXC (Isovaleric Acid-E-T-H-[Dpa]-P-C-I-[Lys(Ahx_Palm)]-[bhPhe]-[(D)Lys(PEG20K)]-C-NH2) [Compound 312]")
32.6
